testSystem: cdk2/cyclin E (Homo sapiens)
assayProtocol: Cyclin-dependent kinase assay, cdk2/cyclin E
conditions: CDK2 IC50, nM, GST-pRb substrate, 10 µM ATP
Structures can show the parent of a compound that is named as a salt.
Label 1 (yes) when IC50 is strictly below 20 nM; otherwise label 0 (no).

Look over these answered cases.
- compound: "CCOC(=O)N1CCC(Nc2nc(N[C@H]3CC[C@H](N)CC3)nc3c2ncn3C(C)C)CC1 [compound 104, dihydrochloride]"
  labelClass: "0 (no)"
- compound: "N[C@H]1CC[C@H](Nc2nc(NC3CCN(S(=O)(=O)c4cccc([N+](=O)[O-])c4)CC3)c3ncn(C4CCCC4)c3n2)CC1 [compound 127, dihydrochloride]"
  labelClass: "1 (yes)"
- compound: "Cl.Cl.N[C@H]1CC[C@H](Nc2nc(NC3CCN(C(=O)c4cccc(C(F)(F)F)c4F)CC3)c3ncn(C4CCCC4)c3n2)CC1 [compound 12, dihydrochloride]"
  labelClass: "1 (yes)"
- compound: "COc1cc(COC(=O)N2CCC(Nc3nc(N[C@H]4CC[C@H](N)CC4)nc4c3ncn4C3CCCC3)CC2)c([N+](=O)[O-])cc1OC [compound 101, dihydrochloride]"
  labelClass: "0 (no)"
- compound: "CC(=O)Nc1ccc(S(=O)(=O)N2CCC(Nc3nc(N[C@H]4CC[C@H](N)CC4)nc4c3ncn4C3CCCC3)CC2)cc1 [compound 115, dihydrochloride]"
  labelClass: "1 (yes)"

## Task Does the reported IC50 of N[C@H]1CC[C@H](Nc2nc(NC3CCN(C(=O)COCc4ccccc4)CC3)c3ncn(C4CCCC4)c3n2)CC1 [compound 37, dihydrochloride] stay below 20 nM?
## Result 0 (no)

* * *

assayProtocol: in vivo
conditions: mouse, in vivo, iv, 3 mg/kg
observable: half-life (h)
Form entry: value (h) — number only.

## Task Entry NC1CCC(Nc2nc(NCCCc3ccccc3)c3ncn(C4CCCC4)c3n2)CC1 (stereo not shown) has what half-life?
## Result 1.7

* * *

System: Colo-205
assayProtocol: In vitro proliferation assay (MTT), Colo-205
Assay type: cell-based
conditions: Homo sapiens, COLO 205; MTT assay; value (SD, n) where given; read-out: Colo-205 Colon (IC50 µM)
Where a name gives a salt, the structure may show the parent alone.
observable: IC50
Respond with a number, then the unit of measure.

- compound: "N[C@H]1CC[C@H](Nc2nc(NC3CCN(C(=O)COc4ccc(Cl)cc4)CC3)c3ncn(C4CCCC4)c3n2)CC1 [compound 31, dihydrochloride]"
  observable: "IC50"
  reported: "0.04 µM"
- compound: "N[C@H]1CC[C@H](Nc2nc(NC3CCN(C(=O)OCc4ccc([N+](=O)[O-])cc4)CC3)c3ncn(C4CCCC4)c3n2)CC1 [compound 94, dihydrochloride]"
  observable: "IC50"
  reported: "0.07 µM"
- compound: "N[C@H]1CC[C@H](Nc2nc(NC3CCN(C(=O)Nc4ccc(F)cc4C(F)(F)F)CC3)c3ncn(C4CCCC4)c3n2)CC1 [compound 202, dihydrochloride]"
  observable: "IC50"
  reported: "0.2 µM"
- compound: "CCOC(=O)c1ccccc1NC(=O)N1CCC(Nc2nc(N[C@H]3CC[C@H](N)CC3)nc3c2ncn3C2CCCC2)CC1 [compound 199, dihydrochloride]"
  observable: "IC50"
  reported: "0.06 µM"

## Task Request: IC50, test system Colo-205, entry N[C@H]1CC[C@H](Nc2nc(NC3CCN(C(=O)Nc4ccc(F)cc4F)CC3)c3ncn(C4CCCC4)c3n2)CC1 [compound 166, dihydrochloride]
## Result 0.02 µM

## Task Request: IC50, test system Colo-205, entry N[C@H]1CC[C@H](Nc2nc(NC3CCN(C(=O)CSc4ccccc4)CC3)c3ncn(C4CCCC4)c3n2)CC1 [compound 46, dihydrochloride]
## Result 0.06 µM
